# System: HT-29
# experimental-protocol: Cytotoxicity against human HT-29 cells assessed as inhibition of cell growth incubated for 24 hrs measured under normoxia conditions by MTT assay
# Format: functional, cell-based
# experimental-setup: HT-29, 24 h
quantity-name: pIC50
Answers are plain numbers, as −log10 of the molar value.

CCn1c2ccc(N)cc2c2cc(/C=C/c3cc[n+](C)c4ccccc34)ccc21.[I-] = 4.71
CCn1c2ccc(/C=C/c3cc[n+](C)c4ccccc34)cc2c2cc(N(c3ccccc3)c3ccccc3)ccc21.[I-] = 5.83

Req: Item under review: CCn1c2ccc(/C=C/c3cc[n+](C)c4ccccc34)cc2c2cc([N+](=O)[O-])ccc21.I . Reported pIC50?
Resp: 4.23
